tested on: HCV 1b replication (bicistronic genotype 1b replicon in Huh 7 cells); assay: HCV 1b replicon assay (1b_Huh-Luc/Neo-ET cell line, luciferase readout); assay type: cell-based; conditions: Hepatitis C virus, Huh-7; numeric EC50; genotype 1b replicon; read-out: Inhibition of HCV genotype 1b replicon (EC50)
pEC50: −log10 of the molar value.

[
  {
    "compound": "C=C1CCCN(S(C)(=O)=O)c2cc3oc(-c4ccc(F)cc4F)c(C(=O)NC)c3cc21",
    "pEC50": 7.25
  },
  {
    "compound": "CNC(=O)c1c(-c2ccc(F)cc2)oc2cc3c(cc12)[C@@H](C)CCCN3S(C)(=O)=O",
    "pEC50": 7.34
  },
  {
    "compound": "CNC(=O)c1c(-c2ccc(F)cc2)oc2cc3c(cc12)[C@H](C)CCCN3S(C)(=O)=O (single isomer, unassigned)",
    "pEC50": 8.26
  },
  {
    "compound": "CNC(=O)c1c(-c2ccc(F)cc2)oc2cc3c(cc12)C(O)CCCN3S(C)(=O)=O (centres unmarked)",
    "pEC50": 6.97
  },
  {
    "compound": "CNC(=O)c1c(-c2ccc(F)cc2)oc2cc3c(cc12)[C@H](C)OCCN3S(C)(=O)=O",
    "pEC50": 8.52
  }
]

Each recorded value in this set is attributed to patent US9085587B2.
